target: human S1P5 (EDG-8) (Homo sapiens); assay: Inhibition of binding of [33P]-S1P to S1P5, CHO membrane fractions; settings: [33P]-S1P binding, membrane fractions of CHO cells overexpressing human S1P5
Sequence (Q9H228 whole entry): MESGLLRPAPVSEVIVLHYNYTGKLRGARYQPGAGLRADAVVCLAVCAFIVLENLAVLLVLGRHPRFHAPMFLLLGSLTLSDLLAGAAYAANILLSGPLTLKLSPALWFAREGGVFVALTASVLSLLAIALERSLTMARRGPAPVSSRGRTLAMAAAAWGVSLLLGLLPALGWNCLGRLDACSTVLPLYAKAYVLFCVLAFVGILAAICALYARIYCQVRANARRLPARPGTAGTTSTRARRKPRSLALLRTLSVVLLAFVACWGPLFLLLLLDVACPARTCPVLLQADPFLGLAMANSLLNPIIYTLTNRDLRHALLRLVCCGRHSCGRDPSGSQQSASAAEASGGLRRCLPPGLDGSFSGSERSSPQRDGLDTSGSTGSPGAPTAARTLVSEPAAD
Response field label takes met when IC50 is strictly below 60 nM and not met in all other cases.

> print(dat)
                                   compound  label.class
1  CC1=C(CN2CC(C(=O)O)C2)CCc2cc(-c3ccccc3)ccc21          met
2  O=C(O)C1CN(CC2=Cc3ccc(OC4CCCCC4)cc3CC2)C1          met
3  CC1=C(CN2CC(C(=O)O)C2)CCc2cc(-c3ccccn3)ccc21      not met

Is IC50 strictly under 60 nM for the entry CCCCc1ccc(Oc2ccc3c(c2)CCC(CN2CC(C(=O)O)C2)=C3C)cc1.Cl [Comparative Compound A, hydrochloride, reference compound] ?
not met

Likewise for CC1Cc2cc(OC3CCCCC3)ccc2C=C1CN1CC(C(=O)O)C1 (centres unmarked) ?
met

FYI, the data here is from patent US11471436B2.
